Hi there, I'd appreciate the recorded percent agglomerates, size 10 for every entry that follows.
System: rat globules (red corpuscles)
Experimental protocol: In vitro anti-sludge activity, preventive treatment (protamine sulfate)
Assay type: cell-based
Experimental parameters: 50 μg
Method: Said activity was investigated in vitro and in vivo in rats. Thrice washed rat globules are diluted to 1/250 in physiological saline. In each of 5 tubes are placed 0.6 ml of this suspension and 0.2 ml physiological saline. […] The globules of each tube are then examined with a Mallases cell, and the percent free globules and the percent aggregates formed by 2, 3, 4, 5 etc.. globules is then recorded.
One number for each entry, in %.

Check out these entries, answers already filled in.
O=C(O)C1Cc2sccc2CN1Cc1ccccc1Cl (stereo not shown) ... 0
CCOC(=O)C1Cc2sc(Cl)cc2CN1Cc1ccccc1 (stereo not shown) ... 0
O=C(OCc1ccccc1Cl)C1Cc2sccc2CN1Cc1ccccc1Cl (stereo not shown) ... 0

# input molecule: O=C(O)[C@@H]1NCc2ccsc2[C@@H]1O (relative stereo) ; wanted: its percent agglomerates, size 10 0

----------
Tested on: rat globules (red corpuscles)
Experimental protocol: In vitro anti-sludge activity, preventive treatment (protamine sulfate)
Format: cell-based
Experimental parameters: 200 μg
Measured endpoint: percent agglomerates, size 3 (%)
Numbers only, in %.

CCOC(=O)C1Cc2sc(Cl)cc2CN1Cc1ccccc1 (stereo not shown) ... 5
O=C(O)[C@@H]1NCc2ccsc2[C@@H]1O (relative stereo) ... 2
O=C(O)C1Cc2sccc2CN1Cc1ccccc1Cl (stereo not shown) ... 4

# input compound: O=C(OCc1ccccc1Cl)C1Cc2sccc2CN1Cc1ccccc1Cl (stereo not shown) ; wanted: its percent agglomerates, size 3 1

----------
Hi there, I'd appreciate the recorded percent agglomerates, size 2 for every entry that follows.
System: rat globules (red corpuscles)
Experimental protocol: In vitro anti-sludge activity, preventive treatment (protamine sulfate)
Format: cell-based
Experimental parameters: 50 μg
Answers are plain numbers, in %.

Check out these entries, answers already filled in.
CCOC(=O)C1Cc2sc(Cl)cc2CN1Cc1ccccc1 (stereo not shown) ... 20
O=C(OCc1ccccc1Cl)C1Cc2sccc2CN1Cc1ccccc1Cl (stereo not shown) ... 23
O=C(O)[C@@H]1NCc2ccsc2[C@@H]1O (relative stereo) ... 24

# input molecule: O=C(O)C1Cc2sccc2CN1Cc1ccccc1Cl (stereo not shown) ; wanted: its percent agglomerates, size 2 25

----------
Test system: rat globules (red corpuscles)
Experimental protocol: In vitro anti-sludge activity, preventive treatment (protamine sulfate)
Assay type: cell-based
Experimental parameters: 50 μg
Measured endpoint: percent free red corpuscles (size of agglomerates 1) (%)
One number for each entry, in %.

Check out these entries, answers already filled in.
O=C(O)[C@@H]1NCc2ccsc2[C@@H]1O (relative stereo) ... 69
O=C(O)C1Cc2sccc2CN1Cc1ccccc1Cl (stereo not shown) ... 65
O=C(OCc1ccccc1Cl)C1Cc2sccc2CN1Cc1ccccc1Cl (stereo not shown) ... 68

Consider the record given below.
# input compound: CCOC(=O)C1Cc2sc(Cl)cc2CN1Cc1ccccc1 (stereo not shown) ; wanted: its percent free red corpuscles (size of agglomerates 1) 66

----------
System: rat globules (red corpuscles)
Experimental protocol: In vitro anti-sludge activity, preventive treatment (protamine sulfate)
Assay type: cell-based
Experimental parameters: 100 μg
Hi there, I'd appreciate the recorded percent agglomerates, size 10 for every entry that follows.
Numbers only, in %.

Check out these entries, answers already filled in.
O=C(O)[C@@H]1NCc2ccsc2[C@@H]1O (relative stereo) ... 0
O=C(O)C1Cc2sccc2CN1Cc1ccccc1Cl (stereo not shown) ... 0
O=C(OCc1ccccc1Cl)C1Cc2sccc2CN1Cc1ccccc1Cl (stereo not shown) ... 0

Consider the record given below.
# input compound: CCOC(=O)C1Cc2sc(Cl)cc2CN1Cc1ccccc1 (stereo not shown) ; wanted: its percent agglomerates, size 10 0

----------
Experimental protocol: Acute toxicity (LD50, method according to Miller and Tainter)
Experimental parameters: mouse, in vivo, mice, intravenous, read-out: LD50 /24h/kg body weight
Hi there, I'd appreciate the recorded LD50 at 24 h for every entry that follows.
Give the number first and the unit second.

Check out these entries, answers already filled in.
O=C(O)[C@@H]1NCc2ccsc2[C@@H]1O (relative stereo) ... 118 mg/kg
CN1Cc2ccsc2CC1C(=O)O (stereo not shown) ... 325 mg/kg
O=C(O)C1Cc2sccc2CN1Cc1ccccc1Cl (stereo not shown) ... 180 mg/kg

# input compound: O=C(O)C1Cc2sccc2CN1 (stereo not shown) ; wanted: its LD50 at 24 h 235 mg/kg

----------
Tested on: rat globules (red corpuscles)
Experimental protocol: In vitro anti-sludge activity, curative procedure (protamine sulfate)
Format: cell-based
Experimental parameters: 25 μg
Measured endpoint: percent agglomerates, size 4 (%)
Give bare numbers, in %.

CCOC(=O)C1Cc2sc(Cl)cc2CN1Cc1ccccc1 (centres unmarked) ... 0
O=C(OCc1ccccc1)[C@H]1[C@@H](O)c2sccc2CN1Cc1ccccc1 (relative stereo) ... 1
O=C(OCc1ccccc1Cl)C1Cc2sccc2CN1Cc1ccccc1Cl (centres unmarked) ... 0
O=C(OCc1ccc([N+](=O)[O-])cc1)C1Cc2sccc2CN1Cc1ccc([N+](=O)[O-])cc1 (centres unmarked) ... 0
O=C(O)C1Cc2sccc2CN1Cc1ccccc1Cl (centres unmarked) ... 1
O=C(O)[C@@H]1NCc2sccc2[C@@H]1O (relative stereo) ... 0
O=C(O)C1Cc2sc(Cl)cc2CN1Cc1ccccc1 (centres unmarked) ... 0

# input molecule: COC(=O)C1Cc2sc(Cl)cc2CN1 (centres unmarked) ; wanted: its percent agglomerates, size 4 1

----------
Tested on: rat globules (red corpuscles)
Experimental protocol: In vitro anti-sludge activity, preventive treatment (protamine sulfate)
Format: cell-based
Experimental parameters: 25 μg
Measured endpoint: percent agglomerates, size 2 (%)
Answers are plain numbers, in %.

O=C(O)[C@@H]1NCc2ccsc2[C@@H]1O (relative stereo) [Example 1] ... 25
CCOC(=O)C1Cc2sc(Cl)cc2CN1Cc1ccccc1 (stereo not shown) [Example 27] ... 16

Each of the following entries comes with a recorded value; kindly state percent agglomerates, size 2 for each.
1. O=C(O)C1Cc2sccc2CN1Cc1ccccc1Cl (stereo not shown) [Example 23]
2. O=C(OCc1ccccc1Cl)C1Cc2sccc2CN1Cc1ccccc1Cl (stereo not shown) [Example 13]

[21, 26]

----------
Test system: rat globules (red corpuscles)
Experimental protocol: In vitro anti-sludge activity, preventive treatment (protamine sulfate)
Format: cell-based
Experimental parameters: 50 μg
Measured endpoint: percent agglomerates, size 3 (%)
Answers are plain numbers, in %.

Check out these entries, answers already filled in.
O=C(O)C1Cc2sccc2CN1Cc1ccccc1Cl (stereo not shown) [Example 23] ... 6
O=C(O)[C@@H]1NCc2ccsc2[C@@H]1O (relative stereo) [Example 1] ... 5
O=C(OCc1ccccc1Cl)C1Cc2sccc2CN1Cc1ccccc1Cl (stereo not shown) [Example 13] ... 5

Consider the record given below.
Test system rat globules (red corpuscles); read-out percent agglomerates, size 3; what value for CCOC(=O)C1Cc2sc(Cl)cc2CN1Cc1ccccc1 (stereo not shown) [Example 27] ? 10

----------
Test system: rat globules (red corpuscles)
Experimental protocol: In vitro anti-sludge activity, curative procedure (protamine sulfate)
Type: cell-based
Experimental parameters: 25 μg
Hi there, I'd appreciate the recorded percent free red corpuscles (size of agglomerates 1) for every entry that follows.

Check out these entries, answers already filled in.
O=C(OCc1ccccc1Cl)C1Cc2sccc2CN1Cc1ccccc1Cl (centres unmarked) [Example 13] ... 86%
O=C(OCc1ccc([N+](=O)[O-])cc1)C1Cc2sccc2CN1Cc1ccc([N+](=O)[O-])cc1 (centres unmarked) [Example 15] ... 87%
O=C(OCc1ccccc1)[C@H]1[C@@H](O)c2sccc2CN1Cc1ccccc1 (relative stereo) [Example 7] ... 84%
COC(=O)C1Cc2sc(Cl)cc2CN1 (centres unmarked) [Example 29] ... 87%
O=C(O)[C@@H]1NCc2sccc2[C@@H]1O (relative stereo) [Example 5] ... 86%

Each of the following entries comes with a recorded value; kindly state percent free red corpuscles (size of agglomerates 1) for each.
1. O=C(O)C1Cc2sccc2CN1Cc1ccccc1Cl (centres unmarked) [Example 23]
2. O=C(O)C1Cc2sc(Cl)cc2CN1Cc1ccccc1 (centres unmarked) [Example 26]
3. CCOC(=O)C1Cc2sc(Cl)cc2CN1Cc1ccccc1 (centres unmarked) [Example 27]

["85%", "86%", "87%"]
